target: HemO (Pseudomonas aeruginosa, UniProt G3XCZ8, D99A/R188A); assay: biochemical
READOUT_KIND: pKd
Give bare numbers, as −log10 of the molar value.

INPUT: Indicate the recorded pKd value for this compound: C=CC1=C(C)C2=Cc3c(C=C)c(C)c4[n]3[Fe]([Cl])[n]3c(c(C)c(CCC(=O)O)c3=CC3=NC(=C4)C(C)=C3CCC(=O)O)=CC1=N2
OUTPUT: 6.00

====

target: HemO (Pseudomonas aeruginosa, UniProt G3XCZ8, R188A); test: biochemical
READOUT_KIND: Kd (nM)
Give bare numbers, in nM.

INPUT: Please tell me the measured Kd for C=CC1=C(C)C2=Cc3c(C=C)c(C)c4[n]3[Fe]([Cl])[n]3c(c(C)c(CCC(=O)O)c3=CC3=NC(=C4)C(C)=C3CCC(=O)O)=CC1=N2 [heme] ; system: HemO (Pseudomonas aeruginosa, UniProt G3XCZ8, R188A).
OUTPUT: 790
